B1: TPR t1 (parent)
chain: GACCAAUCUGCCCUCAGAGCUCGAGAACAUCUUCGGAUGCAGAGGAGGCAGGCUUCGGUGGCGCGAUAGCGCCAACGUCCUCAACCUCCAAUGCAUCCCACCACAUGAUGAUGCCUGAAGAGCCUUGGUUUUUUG

- Variants of: B1
- protocol: polymerase ribozyme fitness, log enrichment relative to wild type (log ratio); higher = more active; in vitro selection for triplet polymerase activity
Please respond with reported polymerase ribozyme fitness (log ratio) for every item in the list.
Would you mind answering with just the numeric figure?

query: Quote polymerase ribozyme fitness (log ratio) reported for C70U U78A A95U U112G U133A please.
result: -0.788

query: Quote polymerase ribozyme fitness (log ratio) reported for C94U A108U C124A please.
result: -4.49

query: Quote polymerase ribozyme fitness (log ratio) reported for A2C C3A U9A C20U G63C G120U please.
result: -1.07

query: Quote polymerase ribozyme fitness (log ratio) reported for G36U C64U C123G please.
result: 0.799

query: Quote polymerase ribozyme fitness (log ratio) reported for C3U U7C C86A A121G please.
result: 2.02

query: Quote polymerase ribozyme fitness (log ratio) reported for C56A C97A please.
result: -3.81

query: Quote polymerase ribozyme fitness (log ratio) reported for C20G C56U C72U please.
result: -3.6

query: Quote polymerase ribozyme fitness (log ratio) reported for C8A A50C C62A C82A C85A C88U C89G A121U please.
result: -3.62

query: Quote polymerase ribozyme fitness (log ratio) reported for G48A C49U G61U U78A G122A U126A please.
result: -3.77

query: Quote polymerase ribozyme fitness (log ratio) reported for G44U C53A G69C A105U please.
result: -5.22

query: Quote polymerase ribozyme fitness (log ratio) reported for C56G U112C please.
result: 1.26

query: Quote polymerase ribozyme fitness (log ratio) reported for C20A C22A C62G U81G U96G A121U please.
result: -5.74

query: Quote polymerase ribozyme fitness (log ratio) reported for A6C C56G please.
result: -0.703

query: Quote polymerase ribozyme fitness (log ratio) reported for A6U A26C C34G C64G A111U please.
result: -7.61

query: Quote polymerase ribozyme fitness (log ratio) reported for `C3A` please.
result: -1.22

query: Quote polymerase ribozyme fitness (log ratio) reported for C94U U131A please.
result: -0.362

query: Quote polymerase ribozyme fitness (log ratio) reported for G10U G51A G61U A100C G113A G120A please.
result: -4.29

query: Quote polymerase ribozyme fitness (log ratio) reported for A6U G44A C56U please.
result: -0.291

query: Quote polymerase ribozyme fitness (log ratio) reported for C34G A83C please.
result: -4.9

query: Quote polymerase ribozyme fitness (log ratio) reported for C70U A103G please.
result: -4.3

query: Quote polymerase ribozyme fitness (log ratio) reported for C49G G51U please.
result: -3.2

query: Quote polymerase ribozyme fitness (log ratio) reported for C40U G52A please.
result: -0.72

query: Quote polymerase ribozyme fitness (log ratio) reported for A27U G39U C72A please.
result: -3.78

query: Quote polymerase ribozyme fitness (log ratio) reported for C70A U130A please.
result: -2.04

query: Quote polymerase ribozyme fitness (log ratio) reported for G61U G107A U112C G122A please.
result: -5.04

query: Quote polymerase ribozyme fitness (log ratio) reported for G71A U78A please.
result: -0.645

query: Quote polymerase ribozyme fitness (log ratio) reported for C64A C115U please.
result: -5.54

query: Quote polymerase ribozyme fitness (log ratio) reported for G48U A91U C123U G127U please.
result: -2.98

query: Quote polymerase ribozyme fitness (log ratio) reported for A2G C15U A37U C101G C104A please.
result: -5.07

query: Quote polymerase ribozyme fitness (log ratio) reported for C12U C20A A75C C114A G117U please.
result: -5.53

query: Quote polymerase ribozyme fitness (log ratio) reported for C64U C124U please.
result: 0.756

query: Quote polymerase ribozyme fitness (log ratio) reported for C22G A41C G44C G69U C79G A90C please.
result: -5.69

query: Quote polymerase ribozyme fitness (log ratio) reported for A5U C12U U21G A27C A46G A90G G120U please.
result: -2.99

query: Quote polymerase ribozyme fitness (log ratio) reported for C11G C28G G60A A68C U81A U106C G127C please.
result: -6.42

query: Quote polymerase ribozyme fitness (log ratio) reported for C28U U55C G71A please.
result: -3.34

query: Quote polymerase ribozyme fitness (log ratio) reported for A50U C70G please.
result: -4.57

query: Quote polymerase ribozyme fitness (log ratio) reported for G35C C72U please.
result: -4.96

query: Quote polymerase ribozyme fitness (log ratio) reported for `U92C` please.
result: -0.847

query: Quote polymerase ribozyme fitness (log ratio) reported for U30G A43C C104A A111U please.
result: -6.22

query: Quote polymerase ribozyme fitness (log ratio) reported for C15U G19A C89A please.
result: -5.15

query: Quote polymerase ribozyme fitness (log ratio) reported for U7A C70U G77U U92C G117C please.
result: -5.47

query: Quote polymerase ribozyme fitness (log ratio) reported for A83U G117U please.
result: -1.02

query: Quote polymerase ribozyme fitness (log ratio) reported for U9C G113A please.
result: -0.364

query: Quote polymerase ribozyme fitness (log ratio) reported for G45U C62A C89G U112A please.
result: -4.99

query: Quote polymerase ribozyme fitness (log ratio) reported for A5C G51A U78C G113U U133G please.
result: -6.24

query: Quote polymerase ribozyme fitness (log ratio) reported for U14A C114U please.
result: -5.22

query: Quote polymerase ribozyme fitness (log ratio) reported for C114G G117A please.
result: -5.27

query: Quote polymerase ribozyme fitness (log ratio) reported for G10C A41C G48A A74U C101U please.
result: -3.49

query: Quote polymerase ribozyme fitness (log ratio) reported for A18C U87G C89U please.
result: -2.03

query: Quote polymerase ribozyme fitness (log ratio) reported for U55C G61A please.
result: -0.329

query: Quote polymerase ribozyme fitness (log ratio) reported for G60C A111U U116C please.
result: -5.57

query: Quote polymerase ribozyme fitness (log ratio) reported for G42A U96C please.
result: -2.41

query: Quote polymerase ribozyme fitness (log ratio) reported for A16U C114U please.
result: -4.86

query: Quote polymerase ribozyme fitness (log ratio) reported for C13A A41U G45C C82A please.
result: -4.65

query: Quote polymerase ribozyme fitness (log ratio) reported for C3A C40A G93U G110U please.
result: -3.31

query: Quote polymerase ribozyme fitness (log ratio) reported for G17A U21A G44C A46C C73G please.
result: -5.53

query: Quote polymerase ribozyme fitness (log ratio) reported for G71U U133A please.
result: -0.757

query: Quote polymerase ribozyme fitness (log ratio) reported for G36C C72A C94A C104U please.
result: -3.64

query: Quote polymerase ribozyme fitness (log ratio) reported for C20U G52C please.
result: -2.19

query: Quote polymerase ribozyme fitness (log ratio) reported for A74U G93A C123A please.
result: -0.279

query: Quote polymerase ribozyme fitness (log ratio) reported for C3A G48U please.
result: -2.67

query: Quote polymerase ribozyme fitness (log ratio) reported for G45U G58A G77A C82A please.
result: -1.74

query: Quote polymerase ribozyme fitness (log ratio) reported for C12A C123A please.
result: 0.369

query: Quote polymerase ribozyme fitness (log ratio) reported for G117C G127A please.
result: -6.44

query: Quote polymerase ribozyme fitness (log ratio) reported for A46U G63U U78A A90U please.
result: -3.56

query: Quote polymerase ribozyme fitness (log ratio) reported for C4U G120C please.
result: -0.0314

query: Quote polymerase ribozyme fitness (log ratio) reported for C15A U133C please.
result: -1.06

query: Quote polymerase ribozyme fitness (log ratio) reported for C56U C73A C85A A91G please.
result: -5.09

query: Quote polymerase ribozyme fitness (log ratio) reported for C88G U96A please.
result: -2.61

query: Quote polymerase ribozyme fitness (log ratio) reported for C49U G61U C86A please.
result: -1.79

query: Quote polymerase ribozyme fitness (log ratio) reported for G60C U130C please.
result: -1.11

query: Quote polymerase ribozyme fitness (log ratio) reported for U7G G93C please.
result: -0.742

query: Quote polymerase ribozyme fitness (log ratio) reported for C20G A46U C114U please.
result: -3.16

query: Quote polymerase ribozyme fitness (log ratio) reported for A41C G107C G117A please.
result: -6.25

query: Quote polymerase ribozyme fitness (log ratio) reported for G39U C85G please.
result: -2.87

query: Quote polymerase ribozyme fitness (log ratio) reported for G44C U54A A105G G117U U129A U133A please.
result: -7.26

query: Quote polymerase ribozyme fitness (log ratio) reported for C13U A16U C56U U129G please.
result: -0.207

query: Quote polymerase ribozyme fitness (log ratio) reported for C20A C28A G36A A90C G110U please.
result: -4.25

query: Quote polymerase ribozyme fitness (log ratio) reported for C62U A74U please.
result: -0.71

query: Quote polymerase ribozyme fitness (log ratio) reported for G44A C70U A103U G117U please.
result: -5.43

query: Quote polymerase ribozyme fitness (log ratio) reported for A46G C70G C94U please.
result: -3.9

query: Quote polymerase ribozyme fitness (log ratio) reported for C72U A91U please.
result: -1.73

query: Quote polymerase ribozyme fitness (log ratio) reported for C13A A50U G71U please.
result: -2.57

query: Quote polymerase ribozyme fitness (log ratio) reported for C11A C64U U78C C80U A83G please.
result: -4.97

query: Quote polymerase ribozyme fitness (log ratio) reported for G61U U129G please.
result: -1.79

query: Quote polymerase ribozyme fitness (log ratio) reported for C4U C70A please.
result: -2.42
